Test system: HS 578T breast
Protocol Summary: NCI tumour cell line growth inhibition, 48 h
Result Type: TGI

Examples from the recorded data:
>  <Compound>
CC1CN(c2cc3c(cc2F)c(=O)c(C(=O)O)cn3-c2ccc(F)cn2)CC(C)N1 (stereo unspecified)

>  <Target Entity>
HS 578T breast

>  <Result>
> 100 µM

$$$$
>  <Compound>
CC(C(N)C(=O)NC(C(=O)O)C1OC(n2ccc(=O)[nH]c2=O)C(O)C1O)C(O)c1ccc(O)cn1 (stereo unspecified)

>  <Target Entity>
HS 578T breast

>  <Result>
> 100 µM

$$$$
>  <Compound>
O=c1cc(N=Nc2ccc(Cl)c(Cl)c2)[nH]c(=O)[nH]1

>  <Target Entity>
HS 578T breast

>  <Result>
13.1 µM

$$$$

Quick check: TGI of "CN(CC(=O)Nc1nc2ccccc2[nH]1)S(=O)(=O)c1ccc(Cl)cc1" ?
> 100 µM

Could you tell me which TGI is on file for "COc1ccc2c(c1)C(=O)/C(=C/c1ccc([N+](=O)[O-])o1)O2" ?
> 26.8 µM

Requested read-out: TGI. Entry: CC(CN(C)C)Oc1ccccc1NC1=C(Cl)C(=O)C(Nc2ccccc2OC(C)CN(C)C)=C(Cl)C1=O (stereo unspecified)
4.53 µM
